Please provide measured inhibition for the entries that follow.
Molecular target: L-lactate dehydrogenase (Homo sapiens)
Assay: Inhibition of LDH (unknown origin) at 5 uM using 2-PG relative to control
Put down the number, then write its unit next to it.

Provide only the value of recorded inhibition for `O=c1c2c(O)cccc2oc2cc(NS(=O)(=O)c3cccc(OC(F)(F)F)c3)c(O)c(O)c12`
12%

Provide only the value of recorded inhibition for `O=c1c2c(O)cccc2oc2cc(NS(=O)(=O)c3ccc(-c4ccccc4)cc3)c(O)c(O)c12`
8%

Provide only the value of recorded inhibition for `O=c1c2c(O)cccc2oc2cc(NS(=O)(=O)c3ccc(I)cc3)c(O)c(O)c12`
11%

Provide only the value of recorded inhibition for `O=c1c2c(O)cccc2oc2cc(NS(=O)(=O)c3ccc4ccccc4c3)c(O)c(O)c12`
9%

Provide only the value of recorded inhibition for `O=c1c2c(O)cccc2oc2cc(NS(=O)(=O)c3ccc(Cl)cc3)c(O)c(O)c12`
15%
